Tested on: Staphylococcus aureus
Assay: Antibacterial activity against methicillin-resistant Staphylococcus aureus ATCC 700699
Format: functional
attribute measured: MIC (µg/mL)
Give the quantity in µg/mL, number only.

Hello, please tell me recorded MIC for this one: COc1ccc(C(=O)/C=C/C(=O)N2CCN(c3ccc(N4C[C@H](C/N=C(/C)S)OC4=O)cc3F)CC2)cc1
0.5

Hello, please tell me recorded MIC for this one: COc1ccc(C(=O)/C=C/C(=O)N2CCN(c3ccc(N4C[C@H](CNC(C)=O)OC4=O)cc3F)CC2)cc1
1

Hello, please tell me recorded MIC for this one: CC(=O)NC[C@H]1CN(c2ccc(N3CCN(C(=O)/C=C/c4ccccc4)CC3)c(F)c2)C(=O)O1
1

Hello, please tell me recorded MIC for this one: CC(=O)NC[C@H]1CN(c2ccc(N3CCN(C(=O)/C=C/C(=O)c4ccc(NC(C)=O)cc4)CC3)c(F)c2)C(=O)O1
1

Hello, please tell me recorded MIC for this one: CC(=O)NC[C@H]1CN(c2ccc(N3CCN(C(=O)CO)CC3)c(F)c2)C(=O)O1 [EPEREZOLID]
1

Hello, please tell me recorded MIC for this one: CC(=O)NC[C@H]1CN(c2ccc(N3CCOCC3)c(F)c2)C(=O)O1 [LINEZOLID]
1

Hello, please tell me recorded MIC for this one: CC(=O)/C=C/C(=O)N1CCN(c2ccc(N3C[C@H](CNC(C)=O)OC3=O)cc2F)CC1
1

Hello, please tell me recorded MIC for this one: CC(=O)NC[C@H]1CN(c2ccc(N3CCN(C(=O)/C=C/C(=O)c4ccc(Br)cc4)CC3)c(F)c2)C(=O)O1
4

Hello, please tell me recorded MIC for this one: CC(=O)NC[C@H]1CN(c2ccc(N3CCN(C(=O)/C=C/C(=O)c4cccc5ccccc45)CC3)c(F)c2)C(=O)O1
8

----------
Tested on: Bacillus pumilus
Test: Antibacterial activity against Bacillus pumilus ATCC 14348
Format: functional
attribute measured: MIC (µg/mL)
Give the quantity in µg/mL, number only.

Find the measured MIC of CC(=O)NC[C@H]1CN(c2ccc(N3CCN(C(=O)/C=C/C(=O)c4ccc(NC(C)=O)cc4)CC3)c(F)c2)C(=O)O1 with Bacillus pumilus as test system.
0.5

Find the measured MIC of CC(=O)/C=C/C(=O)N1CCN(c2ccc(N3C[C@H](CNC(C)=O)OC3=O)cc2F)CC1 with Bacillus pumilus as test system.
0.5

Find the measured MIC of CC(=O)NC[C@H]1CN(c2ccc(N3CCN(C(=O)CO)CC3)c(F)c2)C(=O)O1 [EPEREZOLID] with Bacillus pumilus as test system.
1

Find the measured MIC of COc1ccc(C(=O)/C=C/C(=O)N2CCN(c3ccc(N4C[C@H](C/N=C(/C)S)OC4=O)cc3F)CC2)cc1 with Bacillus pumilus as test system.
0.5

Find the measured MIC of CC(=O)NC[C@H]1CN(c2ccc(N3CCN(C(=O)/C=C/C(=O)c4cccc5ccccc45)CC3)c(F)c2)C(=O)O1 with Bacillus pumilus as test system.
1

Find the measured MIC of CC(=O)NC[C@H]1CN(c2ccc(N3CCN(C(=O)/C=C/c4ccccc4)CC3)c(F)c2)C(=O)O1 with Bacillus pumilus as test system.
0.5

Find the measured MIC of CC(=O)NC[C@H]1CN(c2ccc(N3CCN(C(=O)/C=C/C(=O)c4ccccc4)CC3)c(F)c2)C(=O)O1 with Bacillus pumilus as test system.
1

Find the measured MIC of CC(=O)NC[C@H]1CN(c2ccc(N3CCN(C(=O)/C=C/C(=O)c4ccc(Br)cc4)CC3)c(F)c2)C(=O)O1 with Bacillus pumilus as test system.
0.12

Find the measured MIC of COc1ccc(C(=O)/C=C/C(=O)N2CCN(c3ccc(N4C[C@H](CNC(C)=O)OC4=O)cc3F)CC2)cc1 with Bacillus pumilus as test system.
0.5

Find the measured MIC of CC(=O)NC[C@H]1CN(c2ccc(N3CCOCC3)c(F)c2)C(=O)O1 [LINEZOLID] with Bacillus pumilus as test system.
2
